ASSAY_SYSTEM: Fuc(a1-2)[GalNAc(a1-3)]Gal(b1-3)GlcNAc(b1-2)Man(a1-3)[Fuc(a1-2)[GalNAc(a1-3)]Gal(b1-3)GlcNAc(b1-2)Man(a1-6)]Man(b1-4)GlcNAc(b1-4)[Fuc(a1-6)]GlcNAc
TEST_PROTOCOL: glycan array binding signal (z-score within array); higher = stronger binding
RECORDED_CONDITIONS: glycan notation: IUPAC condensed, linker removed
Shown is part of a subset that was picked to be rich in the strongest signals.
Parameter: glycan array binding signal (z-score). Scope: all listed entries.

Actd5 (Actinidia), P84527 (protein) ISSCNGPCRDLNDCDGQLICIKGKCNDDPQVGTHICRGTTHSHQPGGCKPSGTLTCRGKSYPTYDCSPPVTSSTPAKLTNNDFSEGGDDGGPSECDESYHNNNERIVALSTGWYNGGSRCGKMIRITASNGKSVSAKVVDECDSRHGCDKEHAGQPPCRNNIVDGSNAVWSALGLDKNVGVVDITWSMA :: 1.21
cFel (Cyprinus carpio), P68512 (protein) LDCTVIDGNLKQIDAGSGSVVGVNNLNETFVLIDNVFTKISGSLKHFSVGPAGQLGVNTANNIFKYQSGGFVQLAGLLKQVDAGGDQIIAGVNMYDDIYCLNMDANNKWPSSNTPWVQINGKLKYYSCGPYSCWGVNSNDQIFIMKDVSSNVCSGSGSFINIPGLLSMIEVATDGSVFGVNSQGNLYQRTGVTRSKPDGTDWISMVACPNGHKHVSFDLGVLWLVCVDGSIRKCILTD :: 3.12

Now consider the entry below.
// Input: SP8524D-bot-399-27-399 (Bacteroides ovatus) (protein) DAKYDTLDTHAYIEEALSSTSQKVTVQATGESFTTLNVHLSNLSSTDNHYKLVTDQSVLDTYNHINGTGYIMLPKDYYTLPETITVKAGQYAADALSIALKAFSQEMMKSGESYALPVKLVLQDGSISPMENTGTFVILAESIIEFSAPMFVGAPSLKANKFTESPETYSQYTIEVRFQVANTADRDRAVFKNGGDDANFILLRFEDPQSDNENYKAHSLVQIVGRNRLYLNPSNSFKPNEWQHLALVCDGSNYRLYINGVDSGVLSIPTGATTFSDVNWFCLGDDSYSRWGNCKILMSEARIWSVVRSASQIQNNMTQVSPKSVGLEAYWRFNEGQGNVFEDATGKGHTLTTSATPTWIDGILSTDKSTEWK . Output its glycan array binding signal (z-score) only.
-0.246
